Exercise: for every item that follows, state its recorded inhibition.
biological target: UniProt P30542; experiment: Displacement of [3H]DPCPX from recombinant human A1 adenosine receptor expressed in CHO cell membranes at 1 uM measured after 60 mins by liquid scintillation counting method relative to control; details: Membrane
Sequence (P30542 whole entry): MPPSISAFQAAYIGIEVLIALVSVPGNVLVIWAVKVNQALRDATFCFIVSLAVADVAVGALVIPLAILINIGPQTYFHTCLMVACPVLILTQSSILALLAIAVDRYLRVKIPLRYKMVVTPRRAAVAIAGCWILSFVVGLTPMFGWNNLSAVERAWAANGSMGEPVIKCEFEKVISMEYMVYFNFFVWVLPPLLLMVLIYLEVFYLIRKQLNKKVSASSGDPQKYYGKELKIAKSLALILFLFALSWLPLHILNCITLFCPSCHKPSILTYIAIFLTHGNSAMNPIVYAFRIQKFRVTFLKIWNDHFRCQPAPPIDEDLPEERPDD
Answers are plain numbers, in %.

Answered cases to consult:
Cc1nc(-c2ccc(Cl)cc2)sc1C(=O)CSc1nc(N)c(C#N)c(-c2ccccc2)n1
8.7
Cc1nc(-c2ccccc2)sc1C(=O)CSc1nc(N)c(C#N)c(-c2ccccc2)n1
9.5
COc1ccc(-c2nc(C)c(C(=O)CSc3nc(-c4ccc(OC)c(OC)c4)c(C#N)c(=O)[nH]3)s2)cc1
2.5
COc1ccc(-c2nc(C)c(C(=O)CSc3nc(N)c(C#N)c(-c4ccc(Cl)cc4)n3)s2)cc1
1.1

The following molecules each have a reported value; give each one's inhibition.
1. Cc1nc(-c2ccc(Cl)cc2)sc1C(=O)CSc1nc(N)c(C#N)c(-c2ccc(Cl)cc2)n1
2. COc1ccc(-c2nc(C)c(C(=O)CSc3nc(N)c(C#N)c(-c4ccccc4)n3)s2)cc1
3. COc1ccc(-c2nc(SCC(=O)c3sc(-c4ccccc4)nc3C)[nH]c(=O)c2C#N)cc1OC
4. COc1ccc(-c2nc(SCC(=O)c3sc(-c4ccc(Cl)cc4)nc3C)nc(N)c2C#N)cc1
5. COc1ccc(-c2nc(C)c(C(=O)CSc3nc(N)c(C#N)c(-c4ccc(OC)cc4)n3)s2)cc1
6. COc1ccc(-c2nc(SCC(=O)c3sc(-c4ccccc4)nc3C)nc(N)c2C#N)cc1

-3.7
-2.8
10
1.2
9
-4.6

----------
For each record, write down the corresponding IC50.
tested on: U-87 MG; assay: Antiproliferative activity against human U-87 MG cells assessed as reduction in cell viability measured after 24 to 48 hrs by MTT assay; assay type: functional, cell-based, U-87MG ATCC
Respond with the figure and its unit, in that order.

# annotated cases, reported IC50 shown
COc1ccc(-c2nc(C)c(C(=O)CSc3nc(N)c(C#N)c(-c4ccccc4)n3)s2)cc1
8.54 µM
COc1ccc(-c2nc(C)c(C(=O)CSc3nc(N)c(C#N)c(-c4ccc(Cl)cc4)n3)s2)cc1
4.54 µM

# batch size: 4; output IC50 per entry
1. Cc1nc(-c2ccccc2)sc1C(=O)CSc1nc(N)c(C#N)c(-c2ccccc2)n1
2. Cc1nc(-c2ccc(Cl)cc2)sc1C(=O)CSc1nc(N)c(C#N)c(-c2ccccc2)n1
3. COc1ccc(-c2nc(SCC(=O)c3sc(-c4ccc(Cl)cc4)nc3C)[nH]c(=O)c2C#N)cc1
4. Cc1nc(-c2ccccc2)sc1C(=O)CSc1nc(N)c(C#N)c(-c2ccc(Cl)cc2)n1

28.9 µM
11.4 µM
35.5 µM
10.8 µM

Would you mind giving IC50 for every molecule in the list below?
1. Cc1nc(-c2ccccc2)sc1C(=O)CSc1nc(-c2ccccc2)c(C#N)c(=O)[nH]1
2. Cc1nc(-c2ccccc2)sc1C(=O)CSc1nc(-c2ccc(Cl)cc2)c(C#N)c(=O)[nH]1
3. COc1cccc(-c2nc(SCC(=O)c3sc(-c4ccc(Cl)cc4)nc3C)[nH]c(=O)c2C#N)c1

56.6 µM
43.4 µM
41 µM
